Target: T1, human SLC34A2 (human, UniProt O95436 1-690)
T1 construct: whole, on cells; also called human solute carrier 34 A2; NaPi2b
T1 sequence (looked up): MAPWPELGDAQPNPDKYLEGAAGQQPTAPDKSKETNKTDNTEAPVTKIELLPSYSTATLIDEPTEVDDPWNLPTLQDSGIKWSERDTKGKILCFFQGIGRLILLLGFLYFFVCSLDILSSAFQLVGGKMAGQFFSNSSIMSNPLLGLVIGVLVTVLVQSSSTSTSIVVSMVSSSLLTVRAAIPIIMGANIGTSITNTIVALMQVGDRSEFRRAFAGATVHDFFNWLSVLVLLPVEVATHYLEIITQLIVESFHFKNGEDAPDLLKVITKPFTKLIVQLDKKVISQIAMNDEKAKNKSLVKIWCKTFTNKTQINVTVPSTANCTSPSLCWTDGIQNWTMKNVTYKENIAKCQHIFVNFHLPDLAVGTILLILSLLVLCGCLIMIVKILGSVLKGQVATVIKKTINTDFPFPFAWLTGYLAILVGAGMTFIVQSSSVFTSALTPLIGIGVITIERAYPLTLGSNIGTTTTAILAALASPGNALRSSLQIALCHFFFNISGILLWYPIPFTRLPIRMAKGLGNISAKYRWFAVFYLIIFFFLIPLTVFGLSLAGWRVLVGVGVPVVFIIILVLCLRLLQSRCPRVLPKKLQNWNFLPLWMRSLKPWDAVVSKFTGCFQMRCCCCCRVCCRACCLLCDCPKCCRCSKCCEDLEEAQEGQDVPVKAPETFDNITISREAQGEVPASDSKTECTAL
Assay: FACS, OVCAR3 cells
What EC50 was measured for each of the following?

stdin: For the binder 91C9F1.p1.z10 hIgG1 (antibody, V domains shown, humanized hIgG1) VH: QVQLVQSGAEVVKPGSSVKVSCKTSGFFFTEYIIHWVRQSPGQGLEWIGGIIPNNDVTNYKQNFRGRATLTADKSTSTAYMELSSLRSEDTAVYYCARWRNAYYSAMDSWGQGTTVTVSS VL: DIQMTQSPSSLSTSVGDRVTITCTASQDVGTAVAWYQQKPGKSPKLLIYWASTRHTGVPERFSGSGSGTDFTLTISSLQPEDVATYFCQQYRTSPLTFGGGTKVEIK , report EC50.
stdout: 2.32 nM

stdin: Supply recorded EC50 for 91C9F1.p1.z12 hIgG1 (antibody, V domains shown, humanized hIgG1) VH: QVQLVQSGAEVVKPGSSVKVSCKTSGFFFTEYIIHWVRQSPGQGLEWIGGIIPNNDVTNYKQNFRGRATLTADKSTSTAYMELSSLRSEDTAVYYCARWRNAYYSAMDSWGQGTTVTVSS VL: DIVVTQSPSSLSTSVGDRVTITCTASQDVGTAVAWYQQKPGKSPKLLIYWASTRHTGVPERFTGSGSGTDFTLTISSVQPEDVATYFCQQYRTSPLTFGVGTKLELK here.
stdout: 1.77 nM

stdin: Complete the entry with EC50 for 91C9F1.p1.z1 hIgG1 (antibody, V domains shown, humanized hIgG1) VH: QVQLVQSGAEVKKPGSSVKVSCKASGFFFTEYIIHWVRQAPGQGLEWMGGIIPNNDVTNYKQNFRGRVTITADESTSTAYMELSSLRSEDTAVYYCARWRNAYYSAMDSWGQGTTVTVSS VL: DIQMTQSPSSLSASVGDRVTITCTASQDVGTAVAWYQQKPGKVPKLLIYWASTRHTGVPSRFSGSGSGTDFTLTISSLQPEDVATYYCQQYRTSPLTFGGGTKVEIK
stdout: 3.78 nM

stdin: Specify reported EC50 for the binder shown: 91C9F1.p1.z6 hIgG1 (antibody, V domains shown, humanized hIgG1) VH: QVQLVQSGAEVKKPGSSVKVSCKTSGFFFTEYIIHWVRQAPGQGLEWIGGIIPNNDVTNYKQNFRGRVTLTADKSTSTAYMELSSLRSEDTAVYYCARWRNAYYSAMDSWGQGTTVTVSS VL: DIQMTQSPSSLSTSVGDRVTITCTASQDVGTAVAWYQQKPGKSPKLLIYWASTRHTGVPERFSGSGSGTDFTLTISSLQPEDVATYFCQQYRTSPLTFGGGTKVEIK
stdout: 1.72 nM

stdin: Give the reported EC50 for this binder. 91C9F1.p1.z2 hIgG1 (antibody, V domains shown, humanized hIgG1) VH: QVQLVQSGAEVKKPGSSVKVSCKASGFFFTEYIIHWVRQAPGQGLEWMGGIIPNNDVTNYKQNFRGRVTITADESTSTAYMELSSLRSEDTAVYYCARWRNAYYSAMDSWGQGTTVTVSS VL: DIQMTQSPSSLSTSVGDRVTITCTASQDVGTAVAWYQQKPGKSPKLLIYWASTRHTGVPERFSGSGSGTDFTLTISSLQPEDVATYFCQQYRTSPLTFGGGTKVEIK
stdout: 3.32 nM
